- CONDITIONS USED: buffer; pH 7.4; 200.0 µM
OUTCOME MEASURE: log10(solubility kinetic) (log10 of the value in µg/mL)
Reminder: these figures are log10 of reported solubility kinetic, in µg/mL before transformation.

Query :: Please list log10(solubility kinetic) recorded for the molecule `O=C(CCc1nc(-c2ccccn2)no1)NCc1ccc2c(c1)OCO2`
Result :: 1.72

Query :: Please indicate log10(solubility kinetic) recorded for `O=C(O)CC1(CC(=O)NCc2ccc(-c3cccs3)cc2)CCCCC1`
Result :: 1.64

Query :: Could you please provide reported log10(solubility kinetic) for CC(C(=O)O/N=C(\N)c1cccnc1)c1ccc([N+](=O)[O-])cc1 (centres undefined) ? Thanks!
Result :: 1.61

Query :: For the molecule `COc1cc(C)c(S(=O)(=O)NOCc2ccccc2)c(C)c1C` , give its reported log10(solubility kinetic).
Result :: 0.74

Query :: Given the molecule `COc1cc(C)cc(OC)c1OCC(=O)Nc1cc(C)on1` , write its reported log10(solubility kinetic).
Result :: 0.81

Query :: Indicate the recorded log10(solubility kinetic) value for this molecule: `Cc1[nH]c(=S)c(C#N)c(C)c1Cc1ccccc1`
Result :: 0.93

Query :: Provide one value: measured log10(solubility kinetic) of `CCOC(=O)c1oc2ccccc2c1NC(=O)C(C)(C)C`
Result :: 1.35

Query :: Please supply the value of reported log10(solubility kinetic) for the item `O=C(/C=C/c1ccc(-c2ccc(F)cc2)o1)N1CCCC1`
Result :: 1.50

Query :: Query log10(solubility kinetic) for `C=CCSc1nsc(NC(=O)Nc2cccc(C(C)=O)c2)n1`
Result :: 0.28

Query :: For the molecule `CCOc1cc(-c2nc3n(c(=O)c2C#N)CCS3)ccc1O` , report log10(solubility kinetic).
Result :: 0.76

Query :: For the molecule Cc1ccc(C)c(N2C(=O)C3C4C=CC(CC4)C3C2=O)c1 (centres undefined) , report log10(solubility kinetic).
Result :: 1.17

Query :: For `Cc1nc2ccc(-c3nc4ccc(N)cc4[nH]3)cc2[nH]1` , write its log10(solubility kinetic).
Result :: 1.60

Query :: Give log10(solubility kinetic) for O=C1NC(CCc2ccccc2)C(=O)N1CCOc1ccccc1 (centres undefined)
Result :: 0.40

Query :: # return recorded log10(solubility kinetic) for input `COC(=O)/C(C#N)=C/c1ccc(N2CCOCC2)c([N+](=O)[O-])c1`
Result :: 1.04

Query :: Identify measured log10(solubility kinetic) associated with `Cc1ccc(C(=O)NCCCNC(=O)c2ccco2)cc1C`
Result :: 1.64
